- tested.target: native soluble IL-6R in human plasma (human, UniProt P08887)
- test.method.notes: ELISA 1, periplasmic extract; competitor IL-6; human plasma
assay.readout: OD450 ratio sample/blank
Give bare numbers.

Solved entries (count: 3):
binder | OD450 ratio sample/blank
IL6RPMP101E1 (VHH) VHH: EVQLVESGGGLVQAGGSLRLSCAASGFAFDDYAIGWFRQAPGKEREGVSSISSSNGNTYYADSVRGRFTISSDNAKNTVYLQMNSLKPEDTGVYYCAAIWGIFFNEKMPVGAYDYWGQGTQVTVSS | 0.716
IL6RPMP108F7 (VHH) VHH: EVQLVESGGGLVQAGGSLRLSCTASGRTFSDYDMGWFRQAPGKERECVAVIDTNGDNTLTVGSVKGRFAISRDNAKNTVYLQMNSLLPEDTAVYTCAAGAWSSLRSTAANYWGQGTQVTVSS | 1.05
IL6RPMP101F1 (VHH) VHH: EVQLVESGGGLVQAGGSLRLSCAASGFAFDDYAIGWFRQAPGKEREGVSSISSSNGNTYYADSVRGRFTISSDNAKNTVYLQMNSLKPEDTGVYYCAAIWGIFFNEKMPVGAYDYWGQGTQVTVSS | 0.754

Give me OD450 ratio sample/blank for each of these binders, listed below.
1. IL6RPMP101C2 (VHH) VHH: EVQLVESGGGLVQAGGSLRLSCTASGRTFSDYDMGWFRQAPGKERECVAIIDTNGDNTLIVGSVKGRFAISSDNAKNTVYLQMNSLLPEDTAVYTCAAGVWSSLRHTAANYWGQGTQVTVSS
2. IL6RPMP120A5 (VHH) VHH: EVQLVESGGGLVQAGGSLSLSCATSGRTISDDTMAWFRQAPGKEREFVAIITFNGARTHYSDSVRDRFTISRDNAKNTVYLQMNSLKSEDTAVYYCAASTKYYSSTYNYIHPAFYDIWGQGTQVTVSS
3. IL6RPMP107G10 (VHH) VHH: EVQLVESGGGLVQAGGSLRLSCAASGSIENINAMGWYRQAPGKQRDFLAIITDGSKTLYADSVKGRFTISNDNAKNTVYLQMNSLKPEDTAVYYCNAYQAGWGDYWGQGTQVTVSS
4. IL6RPMP106B2 (VHH) VHH: EVQLVESGGGLVQAGGSLRLSCAASGSIFRINAMGWYRQAPGKQRELVAAAISGGSTNYADFVKGRFTISRDNAKNTVYLQMNSLKPEDTAVYYCNALVVSHNYSDYVPFPDDYWGQGTQVTVSS
5. IL6RPMP101A3 (VHH) VHH: EVQLVESGGGLVQAGGPLRLSCTASGRTFTDYDMGWFRQAPGKEREVVAIIDTNGDNTLTVGSVKGRFAISSDNAKNTVYLQMNSLLPEDTAVYTCAAGAWSALRRSVANYWGQGTQVTVSS

Found:
[1.04, 0.138, 0.523, 0.99, 1.08]
